// koff lookup, one value per entry
target: T1, human tissue factor (human TF, Lake Pharma) (human, UniProt P13726 33-251, limits assumed); assay: Biacore SPR kinetics, antibody captured on anti-Fc, 1:1 Langmuir fit
T1 construct: bought recombinant antigen; also called CD142
T1 sequence (P13726 33-251 limits assumed): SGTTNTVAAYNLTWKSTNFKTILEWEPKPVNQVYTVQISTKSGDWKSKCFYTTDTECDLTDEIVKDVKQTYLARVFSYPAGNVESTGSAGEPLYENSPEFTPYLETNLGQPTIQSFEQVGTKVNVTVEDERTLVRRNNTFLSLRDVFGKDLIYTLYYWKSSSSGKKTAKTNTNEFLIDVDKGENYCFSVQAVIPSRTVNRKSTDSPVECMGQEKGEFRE

# annotated cases, reported koff shown
Binder | koff
mAb 49: aTF_2842-G04_HC2_Y180/F404TAG; aTF_2842-G04_LC2 (antibody, IgG1, V domains shown, non-natural amino acid (pAMF) at TAG sites Y180 and F404 (EU), * in the sequence, unconjugated full-length IgG1/kappa; also called 2842-G04 HC2/LC2) VH: QVQVQESGPGLVKPPGTLSLTCAVSGFSLSYYGVSWVRQPPGKGLEWIGTIDSSGRTYYNPSLKSRVTISNDNAPNTVSLKLSSVTAADTAVYYCARDFYGWNSGALDIWGQGTLVTVSS VL: DLQLTQSPSTLSASVGDRVTITCRASQSVYSNKYLSWYQQKPGKAPKLLIYKASTLASGVPSRFSGSGSGTEFTLTISSLQPDDFATYYCAAAYSDDSDTAFGQGTKVEIKR | 0.000865 s⁻¹
mAb 47: aTF_2842-B01_HC3_Y180/F404TAG; aTF_2842-B01_LC1 (antibody, IgG1, V domains shown, non-natural amino acid (pAMF) at TAG sites Y180 and F404 (EU), * in the sequence, unconjugated full-length IgG1/kappa; also called 2842-B01 HC3/LC1) VH: EVQLVESGGGLVQPGGSLRLSCAASGFSISSYDMSWVRQAPGKGLEWIGIIGSNGRTYYPDSVKGRFTISRDNSKNTVTLQMNSLRAEDTAVYYCARGLYDGTGNIWGQGTLVTVSS VL: DLQMTQSPSSLSASVGDRVTITCRASQSVYGNNWLSWYQQKPGKAPKLLIYGASKLASGVPSRFSGSGSGTQFTLTISSLQPEDFATYYCQGTYYSGDWYFAFGQGTKVEIKR | 0.000422 s⁻¹

Looking up mAb 48: aTF_2842-B01_HC1_Y180/F404TAG; aTF_2842-B01_LC3 (antibody, IgG1, V domains shown, non-natural amino acid (pAMF) at TAG sites Y180 and F404 (EU), * in the sequence, unconjugated full-length IgG1/kappa; also called 2842-B01 HC1/LC3) VH: QVQVVESGGGLVKPGGSLRLSCAASGFSISSYDMSWIRQAPGKGLEWIGIIGSNGRTYYADSVKGRFTISRNTNENTVYLQMNSLRAEDTAVYYCARGLYDGTGNIWGQGTLVTVSS VL: DIQMTQSPSSLSASVGDRVTITCQASQSVYGNNWLSWYQQKPGKAPKLLIYGASKLASGVPSRFSGSGSGTDFTLTISSLQPEDFATYYCQGTYYSGDWYFAFGGGTKVEIKR , I see its koff listed as 0.00124 s⁻¹

Looking up mAb 37: aTF_2842-B01_Hc3_Y180/F404TAG pAzMeF; aTF_2842-B01_Lc2 (antibody, IgG1, V domains shown, pAzMeF at Y180 and F404 (EU), * in the sequence, unconjugated full-length IgG1/kappa, cell-free expressed; also called 2842-B01 HC3/LC2; 2842-B01-HC3/LC2 Y180/F404) VH: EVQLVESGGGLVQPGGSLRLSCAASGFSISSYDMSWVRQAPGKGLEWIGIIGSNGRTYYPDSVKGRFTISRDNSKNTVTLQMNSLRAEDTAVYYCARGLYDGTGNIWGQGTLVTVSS VL: ELVMTQSPPTLSLSPGERVTLSCRASQSVYGNNWLSWYQQKPGQAPRLLIYGASKLATSIPARFSGSGSGTQFTLTISSLQPEDFAVYYCQGTYYSGDWYFAFGQGTKVEIKR , I see its koff listed as 0.000418 s⁻¹
